Test system: H1 human embryonic stem cells
Test: Screen of CDK, GSK3 and TRK inhibitors with or without GDF-8, SOX17 and cell number (Example 20, Table 17)
Assay type: cell-based
Details: Plate 1; compound alone, No GDF8
Give measured Cell Number, Average Total Cell Number for each item. Keep answers brief.
Reply: number alone, nothing else.

Data request: // query Cell Number, Average Total Cell Number value for entry N#Cc1cnc2nc1Nc1cccc(c1)OCCNC(=O)c1cccc(c1)N2
Data returned: 9995

Data request: // query Cell Number, Average Total Cell Number value for entry Nc1nccc(-c2cccc(Nc3ncc4nnn(-c5cccc(CNC(=O)C6CC6)c5)c4n3)c2)n1
Data returned: 13235

Data request: // query Cell Number, Average Total Cell Number value for entry COCCCNCc1ccc(Nc2nccc(-c3c[nH]c4ncccc34)n2)c(OC)c1
Data returned: 13124

Data request: // query Cell Number, Average Total Cell Number value for entry O=C1COc2cccc(c2)Nc2nccc(n2)Nc2cccc(c2)OCCCN1
Data returned: 8700

###

Give measured Sox17 Expression, % of positive control for each item. Keep answers brief.
System: H1 human embryonic stem cells
Experiment: Analog screening with GDF-8 and growth factor/agonist pool (Example 8, Tables 7 and 8)
Format: cell-based
Settings: Table 8: hits with greater than 25% activity of the positive control; with GDF-8 and growth factors/agonists
Procedure: Briefly, clusters of H1 human embryonic stem cells were grown on reduced growth factor […]™ (Invitrogen; Cat #356231)-coated tissue culture plastic. […] Segmentation for the nuclei was determined based on gray-scale levels (baseline range 100-300) and nuclear size. Averages and standard deviations were calculated for each replicate data set. […]

Data request: # query: Sox17 Expression, % of positive control | item O=C1NCCc2cccc(c2)Nc2ncnc(n2)-c2cccc(c2)CCCN2CCC1CC2 | system: H1 human embryonic stem cells
Data returned: 26.3 % of positive control

Data request: # query: Sox17 Expression, % of positive control | item O=C1CCN2CCN(CC2)Cc2cc(Cl)cc(c2)Nc2ncnc(n2)-c2ccc(F)c(c2)CCCN1 | system: H1 human embryonic stem cells
Data returned: 98.2 % of positive control

Data request: # query: Sox17 Expression, % of positive control | item CCN1CC(=O)NCCCc2cc(ccc2F)-c2ncnc(n2)Nc2cc(Cl)cc(c2)C1 | system: H1 human embryonic stem cells
Data returned: 26.6 % of positive control

Data request: # query: Sox17 Expression, % of positive control | item CN1CCCc2cccc(c2)-c2ncnc(n2)Nc2cccc(c2)CCNC(=O)C1 | system: H1 human embryonic stem cells
Data returned: 30.7 % of positive control

Data request: # query: Sox17 Expression, % of positive control | item O=C1CCN2CCN(CC2)Cc2cc(Cl)cc(c2)Nc2ncnc(n2)-c2cncc(c2)CCCN1 | system: H1 human embryonic stem cells
Data returned: 35.0 % of positive control

Data request: # query: Sox17 Expression, % of positive control | item CCN1CC(=O)NCCCc2cncc(c2)-c2ncnc(n2)Nc2cc(Cl)cc(c2)C1 | system: H1 human embryonic stem cells
Data returned: 55.7 % of positive control

Data request: # query: Sox17 Expression, % of positive control | item O=C1CCN2CCN(CC2)Cc2cccc(c2)Nc2ncnc(n2)-c2cncc(c2)CCCN1 | system: H1 human embryonic stem cells
Data returned: 86.0 % of positive control

###

Give measured Sox17 Expression, Average Total Intensity for each item. Keep answers brief.
Test system: H1 human embryonic stem cells
Test: Secondary assay: panel of compounds with growth factor combinations and muscimol, no activin A (Example 6, Table 5)
Assay type: cell-based
Settings: no AA (with Wnt3a); EGF + FGF4 + PDGF-AB + Muscimol
Reply: number alone, nothing else.

Data request: // query Sox17 Expression, Average Total Intensity value for entry O=C1CCN2CCN(CC2)Cc2cc(Cl)cc(c2)Nc2ncnc(n2)-c2cncc(c2)CCCN1
Data returned: 6.90E+06

Data request: // query Sox17 Expression, Average Total Intensity value for entry CCN1CCCc2cccc(c2)-c2ncnc(n2)Nc2cccc(c2)CCNC(=O)C1
Data returned: −1.42E+07

Data request: // query Sox17 Expression, Average Total Intensity value for entry CN1CCC(=O)NCCCNc2ncccc2-c2ncnc(n2)Nc2cccc(c2)C1
Data returned: 2.22E+06

Data request: // query Sox17 Expression, Average Total Intensity value for entry O=C1NCCCc2cncc(c2)-c2ncnc(n2)Nc2cccc(c2)CN2CCCC1C2 (stereo not shown)
Data returned: 8.92E+06

Data request: // query Sox17 Expression, Average Total Intensity value for entry CCN1CC(=O)NCCCc2cncc(c2)-c2ncnc(n2)Nc2cc(Cl)cc(c2)C1
Data returned: 1.54E+06

Data request: // query Sox17 Expression, Average Total Intensity value for entry O=C1NCCCc2cncc(c2)-c2ncnc(n2)Nc2cccc(c2)CN2CCC1CC2
Data returned: 5.61E+06

Data request: // query Sox17 Expression, Average Total Intensity value for entry O=C1NCCCc2cncc(c2)-c2ncnc(n2)Nc2cc(Cl)cc(c2)CN2CCCC1C2 (stereo not shown)
Data returned: −1.91E+06
